HTRF cAMP EC50 listing for selected binders.
target: human GIP receptor (human) (UniProt P48546); assay: cell-based or functional assay
Sequence (P48546 22-466): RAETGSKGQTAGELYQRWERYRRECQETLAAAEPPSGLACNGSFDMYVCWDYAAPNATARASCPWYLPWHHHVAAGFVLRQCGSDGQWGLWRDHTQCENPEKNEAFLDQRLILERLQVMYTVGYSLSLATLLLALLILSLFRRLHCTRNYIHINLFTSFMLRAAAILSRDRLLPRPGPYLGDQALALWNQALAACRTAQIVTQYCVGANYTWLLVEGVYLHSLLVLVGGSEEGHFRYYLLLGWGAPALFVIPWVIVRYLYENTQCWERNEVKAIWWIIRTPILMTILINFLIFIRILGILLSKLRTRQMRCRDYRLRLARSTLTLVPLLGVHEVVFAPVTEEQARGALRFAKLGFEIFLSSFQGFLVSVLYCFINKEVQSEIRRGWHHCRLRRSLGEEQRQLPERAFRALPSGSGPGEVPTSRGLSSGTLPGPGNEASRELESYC
Ends that are not written are not given here.

// known answers, use as guide
binder	observable	value_observed
HGEGTFTSDLSKQLEEERVQLFIEWLKATGPSSGAPPPS-NH2 [P008]	HTRF cAMP EC50	> 0.01 µM
GHGEGTFTSDKSKQLEEEAVRLFIEWLKAGGPSSGAPPPS-NH2 [P021]	HTRF cAMP EC50	> 0.01 µM
GHGEGTFTSDLSKQLEEEAVRLFIEWLKAGGPKKIRYS-NH2 [P013]	HTRF cAMP EC50	> 0.01 µM
GHGEGTFTSDKSKQLEEEAVRLFIEWLKAGGPKKIRYS-NH2 [P014]	HTRF cAMP EC50	> 0.01 µM

Need HTRF cAMP EC50 of GHGEGTFTSDLSKQLEEEAVRLFIEWLKAGGPSSGAPPPS-NH2 [P017] , thanks. > 0.01 µM

Taken from patent US20220010021A1.
